Test system: FGFR1;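 also: KINOMEscan kinase panel screen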
RUN CONDITIONS: concentration: 1 μM, replicates: in singlicate; n = 1
Examples of compounds with documented %Inh follow.
// return numeric value only (unit: %, not printed)

Q: Record request: %Inh value, item Fc1ccc(-c2ncn(CCCN3CCOCC3)c2-c2ccccn2)cc1 [SB-211742]
A: 0

New cases:
Q: Record request: %Inh value, item COc1ccc(S(=O)(=O)NC2CCN(c3cc(C)nc(Nc4cccc(C#N)c4)n3)CC2)cc1.O=C(O)C(F)(F)F [GSK1653539]
A: 0

Q: Follow-up item: COc1cc2c(cc1OCCN1CCN(C)CC1)ncc1c3ccc(C#N)cc3[nH]c21
A: 0

Q: Follow-up item: CN1c2ccc(CNc3ccc(F)cc3)cc2-c2c(cnn2C)S1(=O)=O
A: 0

Q: Follow-up item: CCCCCc1nc2c(N)ncnc2n1CCCCC [SKF-97255]
A: 11

Q: Follow-up item: COc1ccc(COc2cc(-n3cnc4ccccc43)sc2C(N)=O)cc1 [GSK1024304]
A: 0
